Source of measurements: patent US11555012B2

Biological target: ACL (Homo sapiens (Human))
Sequence (P53396 other isoform, or with tags, fused parts or gaps isoform P53396-2): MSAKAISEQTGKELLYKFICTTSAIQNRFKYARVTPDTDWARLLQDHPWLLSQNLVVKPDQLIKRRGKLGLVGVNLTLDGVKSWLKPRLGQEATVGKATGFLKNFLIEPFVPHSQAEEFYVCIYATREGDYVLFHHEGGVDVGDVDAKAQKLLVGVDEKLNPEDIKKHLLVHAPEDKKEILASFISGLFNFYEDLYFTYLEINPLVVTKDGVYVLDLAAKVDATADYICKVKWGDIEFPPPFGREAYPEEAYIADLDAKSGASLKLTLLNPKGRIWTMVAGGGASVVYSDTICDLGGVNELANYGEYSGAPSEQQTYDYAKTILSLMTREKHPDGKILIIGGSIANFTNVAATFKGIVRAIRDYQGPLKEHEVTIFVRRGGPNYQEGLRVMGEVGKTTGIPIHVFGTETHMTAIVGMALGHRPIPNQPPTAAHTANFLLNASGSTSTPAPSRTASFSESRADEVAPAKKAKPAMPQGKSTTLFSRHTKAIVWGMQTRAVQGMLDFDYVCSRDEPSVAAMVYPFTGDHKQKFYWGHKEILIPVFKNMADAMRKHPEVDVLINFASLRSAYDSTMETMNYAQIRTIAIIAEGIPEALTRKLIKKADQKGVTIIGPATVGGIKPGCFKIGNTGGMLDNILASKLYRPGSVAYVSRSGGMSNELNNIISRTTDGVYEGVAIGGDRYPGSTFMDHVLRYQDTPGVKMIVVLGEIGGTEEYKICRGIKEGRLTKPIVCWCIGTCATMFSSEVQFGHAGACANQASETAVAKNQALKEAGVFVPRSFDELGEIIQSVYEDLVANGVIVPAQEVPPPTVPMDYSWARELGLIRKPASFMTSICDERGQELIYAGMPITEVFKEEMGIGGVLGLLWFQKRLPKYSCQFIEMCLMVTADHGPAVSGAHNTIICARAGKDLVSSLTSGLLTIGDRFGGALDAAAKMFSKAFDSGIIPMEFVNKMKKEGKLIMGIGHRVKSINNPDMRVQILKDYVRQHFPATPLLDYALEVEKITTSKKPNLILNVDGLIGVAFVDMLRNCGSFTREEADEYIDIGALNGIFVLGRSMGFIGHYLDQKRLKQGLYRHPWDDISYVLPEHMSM
Assay: ADP-Glo Assay
pIC50: −log10 of the molar value.
Can you tell me pIC50 for the items I'm about to list?

See these solved cases before continuing.
| query_smiles | measured_value |
| --- | --- |
| CO[C@@H]1CCN(C(=O)c2cc(Cl)c(O)c(S(=O)(=O)Nc3cc(-c4ccccc4)ccc3F)c2)C1 | 6.30 to 7.30 |
| O=C(O)c1ccc(-c2ccccc2)cc1NS(=O)(=O)c1ccc2[nH]c(=O)[nH]c2c1 | 4.70 to 6.30 |
| COC(=O)c1cc(Cl)c(O)c(S(=O)(=O)Nc2ccc(F)cc2F)c1 | 6.30 to 7.30 |
| O=C(O)c1ccc(-c2ccccc2)cc1NS(=O)(=O)CC1Cc2ccccc2C1 | 4.70 to 6.30 |
| COC(=O)c1ncccc1S(=O)(=O)Nc1cc(-c2ccccc2)ccc1F | 4.70 to 6.30 |

Provide reported pIC50 for each item, in the same order as listed.
1. COc1ccc(-c2cccnc2)cc1NS(=O)(=O)c1cc(Cl)cc(Cl)c1O
2. O=S(=O)(Nc1ccccc1Oc1ccccc1)c1cc(Cl)cc(Cl)c1O
3. CN(C)C(=O)c1cc(Cl)c(O)c(S(=O)(=O)Nc2cc(-c3ccccc3)ccc2C(=O)O)c1

1: 4.70 to 6.30; 2: 4.70 to 6.30; 3: 4.70 to 6.30

Checklist item: pIC50 tested on ACL (Homo sapiens (Human)), entry "CCOc1c(Cl)cc(Cl)cc1S(=O)(=O)Nc1cc(-c2ccccc2)ccc1C(=O)O" , value?
6.30 to 7.30

----------
Can you tell me IC50 for the items I'm about to list?
Molecular target: ACL (Homo sapiens (Human))
Assay: ADP-Glo Assay

See these solved cases before continuing.
| query_smiles | target | value_kind | measured_value |
| --- | --- | --- | --- |
| Cc1cc(Cl)c(O)c(S(=O)(=O)Nc2cc(-c3ccccc3)c(F)cc2F)c1 | ACL (Homo sapiens (Human)) | IC50 | 50 to 500 nM |
| CC(C)(C)Cc1nc2cc(NS(=O)(=O)c3cc(Cl)cc(Cl)c3O)ccc2o1 | ACL (Homo sapiens (Human)) | IC50 | 500 to 20000 nM |
| COc1ccc(-c2ccccc2)cc1NS(=O)(=O)c1cc(Cl)cc(Br)c1O | ACL (Homo sapiens (Human)) | IC50 | 50 to 500 nM |
| COc1cccc(-c2ccccc2)c1NS(=O)(=O)c1cc(Cl)cc(Cl)c1O | ACL (Homo sapiens (Human)) | IC50 | 500 to 20000 nM |
| O=C(O)c1ccc(-c2ccccc2)cc1NS(=O)(=O)c1cccc(C(F)(F)F)c1 | ACL (Homo sapiens (Human)) | IC50 | 500 to 20000 nM |

Provide reported IC50 for each item, in the same order as listed.
1. CNC(=O)c1cc(Cl)c(O)c(S(=O)(=O)Nc2cc(-c3ccccc3)ccc2OC)c1
2. CC(C)NC(=O)c1ccc(NS(=O)(=O)c2cc(Cl)cc(Cl)c2O)cc1

1. 50 to 500 nM
2. 500 to 20000 nM

Provide reported IC50 for each item, in the same order as listed.
1. CNC(=O)c1cc(Cl)c(OC)c(S(=O)(=O)Nc2cc(-c3ccccc3)ccc2OC)c1
2. COc1c(Cl)cc(C#N)cc1S(=O)(=O)Nc1cc(-c2ccccc2)ccc1F

["> 20000 nM", "500 to 20000 nM"]
